# key: entry, value: pIC50
# SYSTEM_TESTED: PRMT5/MEP50 complex (Homo sapiens)
# Sequence (O14744 whole entry, the tested form may be a part): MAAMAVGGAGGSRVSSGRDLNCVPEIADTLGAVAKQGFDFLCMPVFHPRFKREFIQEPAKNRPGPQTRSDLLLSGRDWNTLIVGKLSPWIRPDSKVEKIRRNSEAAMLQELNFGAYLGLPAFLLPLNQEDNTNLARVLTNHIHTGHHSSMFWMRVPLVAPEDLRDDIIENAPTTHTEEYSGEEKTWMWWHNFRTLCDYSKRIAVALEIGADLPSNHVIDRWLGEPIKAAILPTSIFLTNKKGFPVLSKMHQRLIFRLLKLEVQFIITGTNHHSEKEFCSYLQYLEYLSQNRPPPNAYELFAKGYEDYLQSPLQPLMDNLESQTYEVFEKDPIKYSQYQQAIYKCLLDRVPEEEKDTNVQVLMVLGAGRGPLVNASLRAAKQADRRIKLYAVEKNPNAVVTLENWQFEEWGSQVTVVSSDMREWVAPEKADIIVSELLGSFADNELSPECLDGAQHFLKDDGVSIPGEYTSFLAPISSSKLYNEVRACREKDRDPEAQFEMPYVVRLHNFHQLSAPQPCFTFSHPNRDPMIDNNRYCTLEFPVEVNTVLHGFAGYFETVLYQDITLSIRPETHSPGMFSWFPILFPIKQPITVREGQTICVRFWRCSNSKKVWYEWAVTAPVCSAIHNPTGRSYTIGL
# Sequence (Q9BQA1 whole entry, further chain, the tested form may be a part): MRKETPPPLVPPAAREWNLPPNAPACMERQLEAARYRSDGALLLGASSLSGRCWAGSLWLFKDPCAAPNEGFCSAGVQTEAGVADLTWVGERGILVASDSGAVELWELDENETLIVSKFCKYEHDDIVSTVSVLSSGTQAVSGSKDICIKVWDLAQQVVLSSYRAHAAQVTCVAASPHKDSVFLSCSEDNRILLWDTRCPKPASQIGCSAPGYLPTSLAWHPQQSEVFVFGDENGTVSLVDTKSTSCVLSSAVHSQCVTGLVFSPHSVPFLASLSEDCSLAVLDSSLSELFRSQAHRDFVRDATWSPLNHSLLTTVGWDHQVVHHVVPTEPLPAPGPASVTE
# ASSAY_SUMMARY: Inhibition of recombinant human fetal brain FLAG-tagged PRMT5/full length human testis 6His-tagged MEP50 expressed in baculovirus infected insect Sf9 cells using human histone H4 (1 to 15 residues) as substrate preincubated for 30 mins followed by [3H]-SAM addition
pIC50: −log10 of the molar value.

Below are worked cases with known answers.
# COMPOUND, SYSTEM_TESTED, QUANTITY_MEASURED, TEST_VALUE
data = [
    ("OC(COCc1ccc(Cl)cc1)CN1CCc2ccccc2C1 (configuration not stated)", "PRMT5/MEP50 complex (Homo sapiens)", "pIC50", "5.00 to 6.00"),
    ("O=C(Cn1ccc2cnc(-c3ccnc(NCC(O)CN4CCc5ccccc5C4)c3)nc21)N1CCCCC1 (configuration not stated)", "PRMT5/MEP50 complex (Homo sapiens)", "pIC50", "> 7.00"),
    ("O=C(NC1CCOCC1)C1CC(=O)N(CC(O)CN2CCc3ccccc3C2)C1 (configuration not stated)", "PRMT5/MEP50 complex (Homo sapiens)", "pIC50", "< 5.00"),
]

Here's the next entry for you.
Need pIC50 of O=C(Cn1cnc2ccc(-c3cccc(OCC(O)CN4CCc5ccccc5C4)c3)cc21)N1CCCCC1 (configuration not stated) , thanks.
6.00 to 7.00
